Target: GST-SBP-SLBP (stem-loop binding protein) (Homo sapiens, UniProt Q14493 1-270)
Test: targeted RNA Bind-n-Seq; RBNS binding buffer: 25 mM Tris pH 7.5, 150 mM KCl, 3 mM MgCl2, 0.1% Tween, 0.5 mg/mL BSA, 1 mM DTT; 27 nM protein, 750 pM RNA pool; temperature not stated; high values mean tight binding
Conditions: protein: recombinant; tags: N-terminal GST and SBP (pGEX6P1-SBP)
result-type: binding signal (log2 fold change)
Numeric only. Scale: log2 fold change

Example entries and their recorded answers appear below.
* consensus (structured_RNA) RNA: GGUCACGUCUCAAUCAACUCCCAAAGGUCUUUCUGAAGACCACCCAUCAACAGCUCGCAGUCAAG | 2.75
* consensus (structured_RNA) RNA: GGUCACGUCUCAAUCAACUCCCAAAGGUCUUUUUAAGGACCACCCAUCAACAGCUCGCAGUCAAG | 1.91
* consensus (structured_RNA) RNA: GGUCACGUCUCAAUCAACUCCCAAAGGCCCUUCUGAGGGCCACCCAUCAACAGCUCGCAGUCAAG | 3.16
* consensus (structured_RNA) RNA: GGUCACGUCUCAAUCAACUCCCAAAGGUUCUUUUUAGAGCCACCCAUCAACAGCUCGCAGUCAAG | 2.54

Now examine the next entry.
Prompt line: Consider the binder consensus (structured_RNA) RNA: GGUCACGUCUCAAUCAACUCCCAAAGGCUUUUUUAAGAGCCACCCAUCAACAGCUCGCAGUCAAG and give its recorded binding signal.
Response line: 1.64
